Target: Integrin alpha-V/beta-3 (Homo sapiens, UniProt P05106+P06756)
Sequence (P05106 27-788 limits assumed): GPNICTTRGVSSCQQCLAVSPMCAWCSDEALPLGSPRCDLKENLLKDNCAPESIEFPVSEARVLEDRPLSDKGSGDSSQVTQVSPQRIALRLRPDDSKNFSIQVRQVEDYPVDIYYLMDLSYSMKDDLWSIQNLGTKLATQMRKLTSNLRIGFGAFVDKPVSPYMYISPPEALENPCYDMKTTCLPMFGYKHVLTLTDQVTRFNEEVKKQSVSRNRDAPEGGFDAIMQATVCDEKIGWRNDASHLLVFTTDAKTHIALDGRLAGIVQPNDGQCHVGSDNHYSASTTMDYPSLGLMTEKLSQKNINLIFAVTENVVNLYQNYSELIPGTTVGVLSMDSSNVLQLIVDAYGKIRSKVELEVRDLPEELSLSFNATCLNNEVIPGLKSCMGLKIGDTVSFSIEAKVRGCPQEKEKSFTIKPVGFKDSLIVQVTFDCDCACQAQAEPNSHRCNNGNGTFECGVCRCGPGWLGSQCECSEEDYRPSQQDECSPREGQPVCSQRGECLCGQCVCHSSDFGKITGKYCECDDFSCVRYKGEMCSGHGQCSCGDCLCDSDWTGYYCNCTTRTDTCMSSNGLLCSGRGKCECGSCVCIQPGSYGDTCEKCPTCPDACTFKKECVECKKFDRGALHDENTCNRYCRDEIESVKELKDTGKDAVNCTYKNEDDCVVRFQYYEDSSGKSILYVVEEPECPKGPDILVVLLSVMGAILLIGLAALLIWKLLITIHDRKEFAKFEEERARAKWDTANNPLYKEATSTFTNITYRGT
Sequence (P06756 31-889 limits assumed): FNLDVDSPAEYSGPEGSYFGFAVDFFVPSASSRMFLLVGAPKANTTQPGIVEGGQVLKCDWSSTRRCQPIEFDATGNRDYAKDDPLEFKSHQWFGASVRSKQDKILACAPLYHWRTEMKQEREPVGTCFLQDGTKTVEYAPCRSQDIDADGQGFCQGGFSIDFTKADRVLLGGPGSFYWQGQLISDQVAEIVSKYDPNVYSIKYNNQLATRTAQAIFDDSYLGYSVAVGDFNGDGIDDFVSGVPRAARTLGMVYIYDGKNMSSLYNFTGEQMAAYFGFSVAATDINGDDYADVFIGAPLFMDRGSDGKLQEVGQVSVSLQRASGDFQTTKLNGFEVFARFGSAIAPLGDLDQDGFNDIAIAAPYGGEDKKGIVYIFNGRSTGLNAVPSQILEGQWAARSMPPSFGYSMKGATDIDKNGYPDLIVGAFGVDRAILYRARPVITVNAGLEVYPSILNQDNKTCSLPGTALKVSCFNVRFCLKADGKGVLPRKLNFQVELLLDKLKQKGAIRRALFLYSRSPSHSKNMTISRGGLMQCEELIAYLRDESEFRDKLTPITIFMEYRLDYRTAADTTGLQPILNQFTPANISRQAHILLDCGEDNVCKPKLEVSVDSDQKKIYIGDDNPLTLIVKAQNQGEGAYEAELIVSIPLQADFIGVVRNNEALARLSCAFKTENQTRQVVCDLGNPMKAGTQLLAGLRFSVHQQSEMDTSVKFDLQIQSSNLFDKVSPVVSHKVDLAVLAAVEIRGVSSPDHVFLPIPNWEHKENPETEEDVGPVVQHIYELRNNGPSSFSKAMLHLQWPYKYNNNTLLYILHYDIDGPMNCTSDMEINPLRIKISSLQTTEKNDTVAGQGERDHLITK
Sequence (P06756 891-1048 limits assumed): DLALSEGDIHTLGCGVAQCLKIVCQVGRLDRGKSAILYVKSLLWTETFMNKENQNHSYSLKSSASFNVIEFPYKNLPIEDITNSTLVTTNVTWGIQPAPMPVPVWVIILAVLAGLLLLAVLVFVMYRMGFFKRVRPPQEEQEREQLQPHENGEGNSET
Assay: Inhibition of integrin alphavbeta3 mediated cell adhesion of human M21 cells to vitronectin
pIC50: −log10 of the molar value.
Collected pIC50 values appear next to each entry.
Measured Metric: pIC50

Compound: O=C(Nc1ccccc1C(=O)O)c1ccc(N2C(=O)c3ccc(Oc4ccc([N+](=O)[O-])cc4)cc3C2=O)cc1
Qualifier Symbol: =
Experimental Value: 3.74
//
Compound: COc1cc(NS(=O)(=O)c2ccc(NC(=O)COc3ccc(Cl)cc3Cl)cc2)nc(OC)n1
Qualifier Symbol: =
Experimental Value: 3.86
//
Compound: N=C(N)N=C(N)Nc1cc(Cl)cc(Cl)c1
Qualifier Symbol: =
Experimental Value: 4.47
//
Compound: CSc1ccccc1N=C(N)N=C(N)N
Qualifier Symbol: <
Experimental Value: 3.70
//
Compound: N=C(N)NC(=N)Nc1cc(C(F)(F)F)ccc1Cl
Qualifier Symbol: =
Experimental Value: 3.90
//
Compound: COc1cc(/C=C2\C(=O)N(c3ccc(C(=O)O)cc3)N=C2C)ccc1OC(=O)c1ccccc1
Qualifier Symbol: =
Experimental Value: 3.84
//
Compound: Cn1cnnc1SCC(=O)Nc1ccc(-c2nc3ccc(NC(=O)CSc4nncn4C)cc3o2)c(O)c1
Qualifier Symbol: =
Experimental Value: 3.79
//
Compound: NC(N)=NC(N)=Nc1ccc(SC(F)F)cc1
Qualifier Symbol: =
Experimental Value: 3.75
//
Compound: N=C(N)NC(=N)Nc1ccc(Cl)cc1 [4-CHLOROPHENYLBIGUANIDE]
Qualifier Symbol: =
Experimental Value: 3.83
//
Compound: N=C(N)NC(=N)Nc1cccc(Cl)c1Cl
Qualifier Symbol: =
Experimental Value: 4.06
//
Compound: CCOC(=O)c1cccc(N=C(N)N=C(N)N)c1
Qualifier Symbol: <
Experimental Value: 3.70
//
Compound: N=C(N)NC(=N)Nc1ccc(F)c(Cl)c1
Qualifier Symbol: =
Experimental Value: 4.01
//
Compound: N=C(N)NC(=N)Nc1ccc(Cl)c(Cl)c1
Qualifier Symbol: =
Experimental Value: 4.41
//
Compound: N=C(N)NC(=N)Nc1ccc(Cl)cc1Cl
Qualifier Symbol: =
Experimental Value: 4.17
//
Compound: CCOc1ccccc1N=C(N)N=C(N)N
Qualifier Symbol: <
Experimental Value: 3.70
//
Compound: N=C(N)NC(=N)Nc1cccc(Cl)c1
Qualifier Symbol: =
Experimental Value: 3.72
//
Compound: NC(N)=NC(N)=Nc1cc(Cl)ccc1Cl
Qualifier Symbol: =
Experimental Value: 4.00
//
Compound: N=C(N)NC(=N)Nc1ccccc1Cl
Qualifier Symbol: <
Experimental Value: 3.70
//
Compound: COc1cc(NS(=O)(=O)c2ccc(N/C=C3\C(=O)N(c4ccc(I)cc4)N=C3C)cc2)nc(OC)n1
Qualifier Symbol: =
Experimental Value: 4.27
//
Compound: CSc1cccc(NC(=N)NC(=N)N)c1
Qualifier Symbol: <
Experimental Value: 3.70
//
Compound: Cc1ccc(Cl)cc1N=C(N)N=C(N)N
Qualifier Symbol: <
Experimental Value: 3.70
//
Compound: N=C(N)NC(=N)Nc1cc(C(F)(F)F)cc(C(F)(F)F)c1
Qualifier Symbol: =
Experimental Value: 4.40
//
Compound: CCOc1cc(/C=c2\sc3nc4c(C)cccc4n3c2=O)cc(Br)c1OCC(=O)O
Qualifier Symbol: =
Experimental Value: 3.88
//
Compound: N=C(N)NC(=N)Nc1ccc(SC(F)(F)F)cc1
Qualifier Symbol: =
Experimental Value: 3.99
//
Compound: N=C(N)NC(=N)Nc1ccccc1 [PHENYL BIGUANIDE]
Qualifier Symbol: <
Experimental Value: 3.70
